Tested on: A2780 cells
Assay Details: Cell Viability Assay (ATPlite 1step), A2780
Format: cell-based
Run Conditions: Homo sapiens; A2780, 20 uM compound, 72 hours; read-out: Cell Viability % inhibition A2780 (20 uM Cpd)
Property: percent inhibition of cell viability at 20 µM (%)
Numbers only; they are read as %.

For orientation, consider the following solved cases.
O=C(Nc1ccc(-c2cccs2)cn1)c1cccnc1 | 97.8
COc1ccc(-c2ccc(NC(=O)c3cncnc3)nc2)cc1Cl | 67.9
Cc1ncc(C(=O)Nc2ccc(-c3cccc(NC4CCNC4)c3)cn2)cn1 (centres unmarked) | 87.4
O=C(Nc1ccc(-c2cccc(C3CC3)c2)cn1)c1cncnc1 | 92.1

Complete the entry with percent inhibition of cell viability at 20 µM for O=C(Nc1ccc(-c2ccncc2)cn1)c1cncnc1 47.2

* * *

percent inhibition of cell viability at 20 µM reference
Tested on: PC3 cells
Assay Details: Cell Viability Assay (ATPlite 1step), PC3
Type: cell-based
Run Conditions: Homo sapiens, PC-3; PC3, 20 uM compound, 72 hours; read-out: Cell Viability % inhibition PC3 (20 uM Cpd)
Method: Cell Viability Assay Protocol Cells were trypsinized, counted, and re-seeded into a 384-well tissue culture plate at 1000 cells per well in […] media. Cells were incubated at 37° C. in an atmosphere of 5% CO2 for 24 hours. Experimental compounds, initially dissolved in DMSO and diluted further in media were added to the wells and incubated for 72 hours. Cell viability was measured using the ATPlite 1step Luminescence Detection Assay system (Perkin Elmer) as described in the Assay kit instructions. […]
Numbers only; they are read as %.

Cc1ncc(C(=O)Nc2ccc(-c3cc(N4CCN(C)CC4)cc(S(=O)(=O)C4CC4)c3)c(C)n2)cn1 | 54.7
Cc1ncc(C(=O)Nc2ncc(-c3cccc(OC4CC4)c3)cc2F)cn1 | 70.6
O=C(Nc1ccc(-c2ccc(Cl)cc2)cn1)c1cncnc1 | 17.4
COc1cccc(-c2ccc(NC(=O)c3cncnc3)nc2)c1 | 76.5
Cc1ncc(C(=O)Nc2ccc(-c3cccc(OCCN4CCN(C)CC4)c3)cn2)cn1 | 61.2
Cc1ncc(C(=O)Nc2ncc(-c3cccc(S(=O)(=O)C4CC4)c3)cc2F)cn1 | 65
Cc1ncc(C(=O)Nc2ccc(-c3cc(O)cc(C4CC4)c3)cn2)cn1 | 82.2
O=C(Nc1ccc(-c2cccc(C3COC3)c2)cn1)c1cccnc1 | 84.5
Cc1ncc(C(=O)Nc2ccc(-c3cccc(OC4CC4)c3)cn2)cn1 | 69.6
Cc1ncc(C(=O)Nc2ccc(-c3cc(Cl)cc(N4CCN(C)CC4)c3)cn2)cn1 | 78.6

Okay, next one:
Complete the entry with percent inhibition of cell viability at 20 µM for O=C(Nc1ccc(-c2cccc(OC3CC3)c2)cn1)c1cccnc1 65.6

* * *

Test system: PC3 cells
Assay Details: Cell Viability Assay (ATPlite 1step), PC3
Assay type: cell-based
Run Conditions: Homo sapiens, PC-3; PC3, 20 uM compound, 72 hours; read-out: Cell Viability % inhibition PC3 (20 uM Cpd)
Experimental: Cell Viability Assay Protocol Cells were trypsinized, counted, and re-seeded into a 384-well tissue culture plate at 1000 cells per well in […] media. Cells were incubated at 37° C. in an atmosphere of 5% CO2 for 24 hours. Experimental compounds, initially dissolved in DMSO and diluted further in media were added to the wells and incubated for 72 hours. Cell viability was measured using the ATPlite 1step Luminescence Detection Assay system (Perkin Elmer) as described in the Assay kit instructions. […]
Entries whose percent inhibition of cell viability at 20 µM is below 70% take Condition met; entries at or above 70% take Condition not met.

Look over these answered cases.
Cc1ncc(C(=O)Nc2ccc(-c3cccc(N4CCN(C)CC4)c3)cn2)cn1 | Condition met
O=C(Nc1ccc(-c2cccnc2)cn1)c1cncnc1 | Condition met
Cc1ncc(C(=O)Nc2ccc(-c3csc(C)c3)cn2)cn1 | Condition met

Consider the compound Cc1ncc(C(=O)Nc2ccc(-c3cccc(C4COC4)c3)cn2)cn1 . Is its percent inhibition of cell viability at 20 µM strictly less than 70%? Condition not met

Consider the compound O=C(Nc1ccc(-c2cccc(C3CC3)c2)cn1)c1cncnc1 . Is its percent inhibition of cell viability at 20 µM strictly less than 70%? Condition not met
